Provenance of the data: paper PMC12136788

Give measured binding signal for each item. Keep answers brief.
# testedSystem: T1, UNK ZnF1-3 (human, UniProt Q9C0B0 31-174)
# T1 sequence: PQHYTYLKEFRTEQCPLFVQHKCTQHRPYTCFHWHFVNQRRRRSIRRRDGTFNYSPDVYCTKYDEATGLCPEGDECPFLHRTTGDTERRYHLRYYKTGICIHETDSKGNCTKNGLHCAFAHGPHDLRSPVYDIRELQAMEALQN
# protocolSummary: nsRBNS (natural sequence RNA bind-n-seq); RBNS binding buffer (assumed for nsRBNS): 25 mM Tris pH 7.5, 150 mM KCl, 3 mM MgCl2, 0.01% Triton X-100, 500 ug/ml BSA, 20 U/ml SUPERase-In, 4 C; UNK is unkempt and MSI1 is Musashi-1; names of the RNAs are library labels; protein concentration not given here; high values mean tight binding
The full ranking holds about 24,000 sequences; the median of “enrichment r” is about 0.99, and the highest 2% start at about 3.7. Only a selection was taken, and the highest values are over-represented in it overall.
Field note: include the unit after the figure.

Worked cases, binding signal given:
binder="chr9:108650075:108650076:+_ENSMUSG00000032601_ENSMUST00000035220|mus_mus|FALSE|FALSE (ssRNA) RNA: GGGAGUUCUACAGUCCGACGAUCAGCAAUUUGUUUAUGUAAACAGCACAGAGGUUAAACAAAACAAAACAAAACAAAAACCUACUAAAUACAAACAACAAAAACCCUAACCCAGAUAACCUUUCCUGGCUACUACUGGAAAGACAACAGAGGAUUGAGCAUCA" measurementkind="binding signal" result="4.03 enrichment R"
binder="55618536_55618656_2401_CDS_ENSG00000126787_ENST00000247191|human|control|control (ssRNA) RNA: GGGAGUUCUACAGUCCGACGAUCAACAUCUGAAAUUCCUUCUUUUUUGUUAGUAUUAAUAUCAUCUGCUACUCCACCAGCAAGAAGAGGCAAACUCAUUCUCUCACUGGAUAAACAAUCCACCUUCAAGUCUGUCUUAUUUACCAACAGAGGAUUGAGCAUCA" measurementkind="binding signal" result="1.29 enrichment R"

Turning now to a further record.
Query :: Item chr2:32530853:32530854:+_ENSG00000119820_ENST00000437765|hu_mus|FALSE|FALSE (ssRNA) RNA: GGGAGUUCUACAGUCCGACGAUCUUCAGAAUUCUGACCAAAAAAAAGAAAAAAAAAUCCCAGAUAACUGCAAUUACUUAAAUACAAAAAAUAUUGUUUUAAAAAGACUUUAAGCCUGCCUCUCUAUCUGGAAUGUAUAAAAUUCAACAGAGGAUUGAGCAUCA has what recorded binding signal?
Result :: 4.78 enrichment R
